# targetUnderTest: hERG F656A (Homo sapiens, UniProt Q12809, F656A)
# Sequence (Q12809 whole entry F656A): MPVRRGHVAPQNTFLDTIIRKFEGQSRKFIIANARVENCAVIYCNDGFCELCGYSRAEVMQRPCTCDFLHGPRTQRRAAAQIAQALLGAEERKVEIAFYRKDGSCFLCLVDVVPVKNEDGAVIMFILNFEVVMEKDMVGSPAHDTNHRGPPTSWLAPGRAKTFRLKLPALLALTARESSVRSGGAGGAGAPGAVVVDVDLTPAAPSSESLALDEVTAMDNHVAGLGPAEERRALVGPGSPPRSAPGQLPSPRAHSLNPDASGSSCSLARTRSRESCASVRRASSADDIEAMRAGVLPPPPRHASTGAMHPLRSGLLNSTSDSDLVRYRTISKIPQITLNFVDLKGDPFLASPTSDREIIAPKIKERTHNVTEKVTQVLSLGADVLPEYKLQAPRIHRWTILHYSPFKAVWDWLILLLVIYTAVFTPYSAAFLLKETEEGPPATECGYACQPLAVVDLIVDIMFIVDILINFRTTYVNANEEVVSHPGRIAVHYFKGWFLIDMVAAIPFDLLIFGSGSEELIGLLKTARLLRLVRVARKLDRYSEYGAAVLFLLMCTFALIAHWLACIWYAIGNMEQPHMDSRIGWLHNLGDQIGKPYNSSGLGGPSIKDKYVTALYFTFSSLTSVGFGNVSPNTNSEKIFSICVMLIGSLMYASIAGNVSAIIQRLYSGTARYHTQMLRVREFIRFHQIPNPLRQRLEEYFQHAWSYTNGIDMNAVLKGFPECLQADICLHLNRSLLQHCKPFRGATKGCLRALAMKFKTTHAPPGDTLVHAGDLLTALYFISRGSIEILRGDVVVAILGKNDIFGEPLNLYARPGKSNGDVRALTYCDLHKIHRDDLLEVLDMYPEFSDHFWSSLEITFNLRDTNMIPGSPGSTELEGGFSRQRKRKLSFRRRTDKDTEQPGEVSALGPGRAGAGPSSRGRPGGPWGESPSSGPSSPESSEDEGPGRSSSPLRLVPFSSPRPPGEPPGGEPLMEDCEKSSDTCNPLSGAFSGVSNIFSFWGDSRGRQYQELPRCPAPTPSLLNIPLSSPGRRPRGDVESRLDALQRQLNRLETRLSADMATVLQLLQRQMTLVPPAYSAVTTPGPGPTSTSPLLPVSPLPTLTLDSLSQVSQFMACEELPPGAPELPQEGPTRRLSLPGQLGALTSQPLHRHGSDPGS
# assayOverview: in vitro
# conditions: pH 7.4, Percent current inhibition hERG F656A
# reported inhibition at 5 µM; entries follow
Reply numerically in %, unit not repeated.

# molecule, unitSymbol, reportedValue
measured = [
    ("CCOc1cc(N)c(Cl)cc1C(=O)NCC1CN(Cc2ccc(F)cc2)CCO1 (centres unmarked) [Mosapride]", "%", 16),
]

Please examine the following record next.
In: Retrieve inhibition at 5 µM measured for COc1cc(N)c(Cl)cc1C(=O)NC1CCN(CCCOc2ccc(F)cc2)CC1OC (centres unmarked) [Cisapride] and print it.
Out: 59.6

====

# targetUnderTest: hERG Y652A (Homo sapiens, UniProt Q12809, Y652A)
# Sequence (Q12809 whole entry Y652A): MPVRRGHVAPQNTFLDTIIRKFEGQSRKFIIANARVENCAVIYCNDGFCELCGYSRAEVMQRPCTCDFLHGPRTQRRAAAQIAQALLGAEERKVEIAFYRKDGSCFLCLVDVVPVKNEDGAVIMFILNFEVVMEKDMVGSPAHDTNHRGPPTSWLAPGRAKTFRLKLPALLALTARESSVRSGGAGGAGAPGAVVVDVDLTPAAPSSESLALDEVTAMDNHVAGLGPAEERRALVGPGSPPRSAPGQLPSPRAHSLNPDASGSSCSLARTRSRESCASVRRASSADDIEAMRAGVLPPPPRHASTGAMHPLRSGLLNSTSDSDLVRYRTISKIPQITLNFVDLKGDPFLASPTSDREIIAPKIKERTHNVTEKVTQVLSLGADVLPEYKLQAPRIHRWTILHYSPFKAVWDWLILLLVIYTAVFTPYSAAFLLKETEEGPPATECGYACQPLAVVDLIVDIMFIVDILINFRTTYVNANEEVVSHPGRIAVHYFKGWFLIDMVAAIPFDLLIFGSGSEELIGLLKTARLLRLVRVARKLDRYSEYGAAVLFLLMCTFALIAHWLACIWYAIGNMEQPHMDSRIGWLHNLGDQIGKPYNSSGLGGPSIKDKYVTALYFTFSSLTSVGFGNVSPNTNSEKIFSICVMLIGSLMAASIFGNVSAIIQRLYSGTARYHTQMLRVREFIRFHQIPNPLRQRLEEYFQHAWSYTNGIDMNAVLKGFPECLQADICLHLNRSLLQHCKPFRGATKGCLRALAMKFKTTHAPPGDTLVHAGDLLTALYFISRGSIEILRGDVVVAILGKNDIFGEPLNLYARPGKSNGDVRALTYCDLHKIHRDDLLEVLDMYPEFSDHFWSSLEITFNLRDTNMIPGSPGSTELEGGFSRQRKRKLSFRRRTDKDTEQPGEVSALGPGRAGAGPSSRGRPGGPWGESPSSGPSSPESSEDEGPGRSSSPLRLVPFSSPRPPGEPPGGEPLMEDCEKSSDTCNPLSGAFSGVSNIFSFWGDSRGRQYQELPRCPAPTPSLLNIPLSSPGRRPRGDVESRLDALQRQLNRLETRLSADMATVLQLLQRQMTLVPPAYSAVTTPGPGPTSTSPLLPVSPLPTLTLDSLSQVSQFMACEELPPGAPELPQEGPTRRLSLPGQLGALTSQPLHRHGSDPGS
# assayOverview: in vitro
# conditions: pH 7.4, Percent current inhibition hERG Y652A
quantityKind: inhibition at 1 µM (%)
Reply numerically in %, unit not repeated.

In: Retrieve inhibition at 1 µM measured for CCOc1cc(N)c(Cl)cc1C(=O)NCC1CN(Cc2ccc(F)cc2)CCO1 (stereo not shown) [Mosapride] and print it.
Out: 7.13
